# system: rat GHS-R (GHS receptor) expressed on CHO-GHSR62 cells (rat, UniProt O08725 1-364)
# Sequence (O08725 whole entry): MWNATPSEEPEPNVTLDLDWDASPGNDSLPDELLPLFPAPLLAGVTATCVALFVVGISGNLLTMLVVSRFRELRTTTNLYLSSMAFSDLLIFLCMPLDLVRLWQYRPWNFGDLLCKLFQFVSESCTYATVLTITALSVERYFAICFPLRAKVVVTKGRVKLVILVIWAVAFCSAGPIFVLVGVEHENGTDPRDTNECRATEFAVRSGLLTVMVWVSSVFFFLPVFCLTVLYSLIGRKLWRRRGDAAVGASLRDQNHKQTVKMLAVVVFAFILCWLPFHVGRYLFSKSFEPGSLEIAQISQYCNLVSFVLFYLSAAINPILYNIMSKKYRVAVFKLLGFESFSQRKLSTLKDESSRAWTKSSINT
# protocol-notes: cell-based or functional assay
Numbered stars: 1 amine (or outer) side, 2 acyl side, 3 side chain; on linkers, the order of the positions; unused ones are H or OH. Square brackets hold non-standard residues; d marks the D form. Ends that are not written are not given here. * marks the point of attachment. Ethylenediamine = C(CN[*:2])N[*:1]; NMeF = CN[C@@H](Cc1ccccc1)C(=O)O; NMeL = CN[C@@H](CC(C)C)C(=O)O; NHBn = c1ccc(CN*)cc1; Ava = NCCCCC(=O)O; Octyl = CCCCCCCC*
Could you mark each record class 1 if its Activity EC50 falls strictly under 0.02 µM, and class 0 if it equals or exceeds it?

q: Problem: For the binder [Ava]S(Octyl)FL-NHEt [[N-Aminopentanoyl,Ser^3(Octyl)]-Ghrelin (3-5)-ethylamide] , is Activity EC50 under 0.02 µM?
a: class 0

q: Dear reviewer, please state whether [Ava]S(Octyl)FL-Ethylenediamine [[N-Aminopentanoyl,Ser^3(Octyl)]-Ghrelin (3-5)-aminoethylamide] has Activity EC50 strictly beneath 0.02 µM.
a: class 1

q: Take the binder [Ava]S(Octyl)FL-NHMe [[N-Aminopentanoyl,Ser^3(Octyl)]-Ghrelin (3-5)-methylamide] and say whether its Activity EC50 is less than 0.02 µM.
a: class 1

q: Lab note: confirm whether the reported Activity EC50 for this binder is below 0.02 µM, equality not counting. binder: [Ava]S(Octyl)FL-NH2 (N-terminus assumed; SMILES CCCCCCCCOC[C@H](NC(=O)CCCCN)C(=O)N[C@@H](Cc1ccccc1)C(=O)N[C@@H](CC(C)C)C(N)=O) [[N-Aminopentanoyl,Ser^3(Octyl)]-Ghrelin (3-5)-amide]
a: class 1

q: Does [Ava]S(Octyl)[NMeF][NMeL]-NH2 [[N-Aminopentanoyl,Ser^3(Octyl),MePhe^4,MeLeu^5]-Ghrelin (3-5)-amide] have Activity EC50 strictly under 0.02 µM?
a: class 0

q: Input [Ava]S(Octyl)FL-NHBn [[N-Aminopentanoyl,Ser^3(Octyl)]-Ghrelin (3-5)-benzylamide] ; condition: Activity EC50 strictly below 0.02 µM. Does it hold?
a: class 0
